# maps each entry to its pIC50
target: NR1-1a/NR2B NMDA receptor (Rattus norvegicus, UniProt P35439+Q00960); construct: expressed in transfected cells; host or cells: HEK293 cells (ATCC CRL1573); experiment: Patch-clamp inhibition of glutamate-evoked currents at recombinant NMDA receptors in transfected HEK293 cells; format: cell-based; details: calculated from relative steroid-induced inhibition, Hill's coefficient 1.2; read-out: IC50
Sequence (Q00960 27-1482, other chains not shown): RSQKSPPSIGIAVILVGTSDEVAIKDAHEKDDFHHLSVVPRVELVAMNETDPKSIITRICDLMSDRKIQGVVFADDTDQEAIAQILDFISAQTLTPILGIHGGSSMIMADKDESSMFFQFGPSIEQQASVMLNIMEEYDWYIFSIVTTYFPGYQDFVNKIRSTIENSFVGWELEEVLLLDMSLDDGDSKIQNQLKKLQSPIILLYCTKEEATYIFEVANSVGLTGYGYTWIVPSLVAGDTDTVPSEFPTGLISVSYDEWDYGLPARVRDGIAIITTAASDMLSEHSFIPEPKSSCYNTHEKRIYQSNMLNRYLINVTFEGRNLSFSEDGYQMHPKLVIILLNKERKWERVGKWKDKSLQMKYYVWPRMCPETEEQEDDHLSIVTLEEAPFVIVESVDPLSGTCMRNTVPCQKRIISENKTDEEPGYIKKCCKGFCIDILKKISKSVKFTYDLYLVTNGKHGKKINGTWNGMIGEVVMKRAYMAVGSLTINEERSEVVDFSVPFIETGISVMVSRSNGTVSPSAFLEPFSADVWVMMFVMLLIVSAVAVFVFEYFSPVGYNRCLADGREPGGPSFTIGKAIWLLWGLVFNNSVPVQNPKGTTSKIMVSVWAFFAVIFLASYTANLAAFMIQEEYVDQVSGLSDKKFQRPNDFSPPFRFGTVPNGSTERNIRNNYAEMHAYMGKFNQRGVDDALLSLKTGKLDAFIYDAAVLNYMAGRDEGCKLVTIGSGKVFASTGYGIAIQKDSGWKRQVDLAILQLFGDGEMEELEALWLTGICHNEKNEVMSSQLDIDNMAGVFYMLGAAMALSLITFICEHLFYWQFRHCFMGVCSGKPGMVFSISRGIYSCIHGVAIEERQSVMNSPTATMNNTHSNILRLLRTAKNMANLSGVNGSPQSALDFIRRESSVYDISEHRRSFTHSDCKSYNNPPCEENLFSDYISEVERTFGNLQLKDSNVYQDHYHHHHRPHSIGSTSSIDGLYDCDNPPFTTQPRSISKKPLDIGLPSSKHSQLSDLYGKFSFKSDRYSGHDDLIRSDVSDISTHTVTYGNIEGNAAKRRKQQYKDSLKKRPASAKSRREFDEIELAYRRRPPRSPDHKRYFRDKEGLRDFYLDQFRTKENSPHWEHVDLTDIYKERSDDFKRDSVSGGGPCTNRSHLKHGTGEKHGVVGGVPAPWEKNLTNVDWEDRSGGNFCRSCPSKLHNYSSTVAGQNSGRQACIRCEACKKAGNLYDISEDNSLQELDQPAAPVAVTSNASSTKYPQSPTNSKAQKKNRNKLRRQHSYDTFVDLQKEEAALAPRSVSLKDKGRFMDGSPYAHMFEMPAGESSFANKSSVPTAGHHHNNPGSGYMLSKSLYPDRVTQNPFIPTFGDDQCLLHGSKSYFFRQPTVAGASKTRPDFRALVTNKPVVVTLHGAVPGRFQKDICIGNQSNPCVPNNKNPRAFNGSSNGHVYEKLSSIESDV
pIC50: −log10 of the molar value.

MOLECULE	pIC50
C[C@@]12CCC[C@H]1[C@@H]1CC[C@@H]3C[C@H](OS(=O)(=O)O)CC[C@]3(C)[C@H]1CC2.c1ccncc1 [Compound 49]	5.68
C[C@@]12CCC[C@H]1[C@@H]1CC[C@@H]3C[C@H](OC(=O)CC(=O)O)CC[C@]3(C)[C@H]1CC2 [Compound 51]	4.81
COC[C@@]1(C)CC[C@H]2[C@@H](CC[C@@H]3C[C@H](OC(=O)CCC(=O)O)CC[C@@]32C)C1C (stereo partly shown) [Compound 19]	4.26
C[C@@H]1CC[C@H]2[C@@H](CC[C@@H]3C[C@H](OC(=O)CCC(=O)O)CC[C@@]32C)C1 [Compound 34]	4.63
C[C@]12CC[C@@H](OS(=O)(=O)O)C[C@H]1CC[C@@H]1[C@@H]2CC[C@@]2(C)[C@H]1CC[C@@]21CO1 [Compound 97]	4.35
C=C1CC[C@H]2[C@@H]3CC[C@@H]4C[C@H](OC(=O)CCC(=O)O)CC[C@]4(C)[C@H]3CC[C@]12C [Compound 68]	4.73
C[C@@H]1CC[C@H]2[C@@H](CC[C@@H]3C[C@H](OS(=O)(=O)O)CC[C@@]32C)C1 [Compound 35]	4.92
CC[C@@H](C)C1CC[C@H]2[C@@H]3CC[C@@H]4C[C@H](NC(=O)C(=O)[O-])CC[C@]4(C)[C@H]3CC[C@]12C.[Na+] (stereo partly shown) [Compound 148]	5.03
C=C1CC[C@H]2[C@@H]3CC[C@@H]4C[C@H](OC(=O)C[N+](C)(C)C)CC[C@]4(C)[C@H]3CC[C@]12C [Compound 76]	4.29
C[C@@]12CCCCC1[C@@H]1CC[C@@H]3C[C@H](OC(=O)[C@@H](N)CCC(=O)O)CC[C@]3(C)[C@H]1CC2 (stereo partly shown) [Compound 106]	4.97
C[C@]12CC[C@@H](OC(=O)CCC(=O)O)C[C@H]1CC[C@@H]1[C@@H]2CC[C@]2(C)C=CC[C@@H]12 [Compound 64]	4.89
C=C1C[C@H]2[C@@H]3CC[C@@H]4C[C@H](OS(=O)(=O)O)CC[C@]4(C)[C@H]3CC[C@]2(C)C1 [Compound 114]	5.68
CC[C@@H](C)C1CC[C@H]2[C@@H]3CC[C@@H]4C[C@H](NC(=O)CC(=O)O)CC[C@]4(C)[C@H]3CC[C@]12C (stereo partly shown) [Compound 149]	4.74

----------
Biological target: NR1-1a/NR2B NMDA receptor (Rattus norvegicus, UniProt P35439+Q00960)
Construct: expressed in transfected cells; host or cells: HEK293 cells (ATCC CRL1573)
Test: Patch-clamp inhibition of glutamate-evoked currents at recombinant NMDA receptors in transfected HEK293 cells
Assay type: cell-based
Experimental: Transfected cells were identified by means of fluorescent green protein (GFP) fluorescence. Its genus was transfected together with the both receptor subunit genes. […] Current responses produced by extracellular application of glutamic acid solution (1 mmol·l^−1) were measured from the whole cell by patch-clamp technique, which is used for the study of transport of charged particles through model and also natural biological membranes. […]
pIC50: −log10 of the molar value.

CHEM_SMILES	pIC50
C/C=C1/CC[C@H]2[C@@H]3CC[C@@H]4C[C@H](NC(=O)CC(=O)O)CC[C@]4(C)[C@H]3CC[C@]12C	5.06
C[C@@]12CCC[C@H]1[C@@H]1CC[C@@H]3C[C@H](NC(=O)CC(=O)O)CC[C@]3(C)[C@H]1CC2	4.81
C[C@]12CC[C@@H](OS(=O)(=O)O)C[C@H]1CC[C@@H]1[C@@H]2CC[C@@]2(C)[C@H]1CCC2(F)F	5.15

----------
target: NR1-1a/NR2B NMDA receptor (Rattus norvegicus, UniProt P35439+Q00960); construct: expressed in transfected cells; host or cells: HEK293 cells (ATCC CRL1573); assay: Patch-clamp inhibition of glutamate-evoked currents at recombinant NMDA receptors in transfected HEK293 cells; assay type: cell-based; details: HEK293; steroid concentration 50 μmol·l^−1; 1 mmol·l^−1 glutamate, −60 mV; read-out: Mean % change ± SD
# maps each entry to its inhibition at 50 µM

COMPOUND	TARGET_UNDER_TEST	inhibition at 50 µM (%)
COC(=O)[C@@]1(C)CC[C@H]2[C@@H](CC[C@@H]3C[C@H](OS(=O)(=O)O)CC[C@@]32C)C1	NR1-1a/NR2B NMDA receptor (Rattus norvegicus, UniProt P35439+Q00960)	14.4
C[C@@H]1CC[C@H]2[C@@H](CC[C@@H]3C[C@H](OS(=O)(=O)O)CC[C@@]32C)C1	NR1-1a/NR2B NMDA receptor (Rattus norvegicus, UniProt P35439+Q00960)	85
COC[C@@]1(C)CC[C@H]2[C@@H](CC[C@@H]3C[C@H](OC(=O)CCC(=O)O)CC[C@@]32C)C1C (stereo partly shown)	NR1-1a/NR2B NMDA receptor (Rattus norvegicus, UniProt P35439+Q00960)	47.4
COC[C@@]1(C)CC[C@H]2[C@@H](CC[C@@H]3C[C@H](OS(=O)(=O)O)CC[C@@]32C)[C@@H]1C	NR1-1a/NR2B NMDA receptor (Rattus norvegicus, UniProt P35439+Q00960)	60.5

----------
system: NMDA lesion of the dorsal hippocampus in rats; assay: Active allothetic place avoidance (AAPA) after bilateral excitotoxic NMDA lesion of dorsal hippocampus; type: in vivo, rat Long-Evans strain; conditions: 1 mg/kg after surgery, vs NMDA group
RECORDED_METRIC: number of entries into the forbidden sector, fourth session of AAPA

CHEM_SMILES	ASSAY_VALUE
C[C@@]12CCC[C@H]1[C@@H]1CC[C@@H]3C[C@H](OC(=O)[C@@H](N)CCC(=O)O)CC[C@]3(C)[C@H]1CC2	significant reduction
C=C1CC[C@H]2[C@@H]3CC[C@@H]4C[C@H](OC(=O)CC(=O)O)CC[C@]4(C)[C@H]3CC[C@]12C	significant reduction

----------
# maps each entry to its pIC50
target: NR1-1a/NR2B NMDA receptor (Rattus norvegicus, UniProt P35439+Q00960); construct: expressed in transfected cells; host or cells: HEK293 cells (ATCC CRL1573); assay: Patch-clamp inhibition of glutamate-evoked currents at recombinant NMDA receptors in transfected HEK293 cells; type: cell-based; conditions: calculated from relative steroid-induced inhibition, Hill's coefficient 1.2; read-out: IC50
pIC50: −log10 of the molar value.
RECORDED_METRIC: pIC50

COMPOUND	RECORDED_METRIC	ASSAY_VALUE
C[C@]12CC[C@@H](OS(=O)(=O)O)C[C@H]1CC[C@@H]1[C@@H]2CC[C@]2(C)[C@@H](I)CC[C@@H]12	pIC50	6.10
C[C@H]1CC[C@H]2[C@@H]3CC[C@@H]4C[C@H](NC(=O)CC(=O)O)CC[C@]4(C)[C@H]3CC[C@]12C	pIC50	5.41
C[C@@]12CCC[C@H]1[C@@H]1CC[C@@H]3C[C@H](OC(=O)CCC[N+](C)(C)C)CC[C@]3(C)[C@H]1CC2	pIC50	5.77
C[C@@]12CCC[C@H]1[C@@H]1CC[C@@H]3C[C@H](N4CC(C(=O)O)CC4=O)CC[C@]3(C)[C@H]1CC2 (some centres unmarked)	pIC50	4.75
C[C@]12CC[C@@H](CC(=O)O)C[C@H]1CC[C@@H]1[C@@H]2CC[C@]2(C)C(=O)CC[C@@H]12	pIC50	4.41

----------
target: NR1-1a/NR2B NMDA receptor (Rattus norvegicus, UniProt P35439+Q00960); construct: expressed in transfected cells; host or cells: HEK293 cells (ATCC CRL1573); experiment: Patch-clamp inhibition of glutamate-evoked currents at recombinant NMDA receptors in transfected HEK293 cells; type: cell-based; conditions: HEK293, read-out: Mean % change ± SD
Definition: the class of an entry is the range in bottom range (below 40%), center range (40% to below 50%), top range (50% or more) that contains its inhibition at 10 µM.

COMPOUND	CLASS_LABEL
C[C@@]12CCC[C@H]1[C@@H]1CC[C@@H]3C[C@H](OC(=O)C(=O)O)CC[C@]3(C)[C@H]1CC2	top range
C[C@@]12CCC[C@H]1[C@@H]1CC[C@@H]3C[C@H](NC(=O)C(=O)O)CC[C@]3(C)[C@H]1CC2	bottom range
C[C@@]12CCC[C@H]1[C@@H]1CC[C@@H]3C[C@H](N4CC(C(=O)O)CC4=O)CC[C@]3(C)[C@H]1CC2 (some centres unmarked)	bottom range
C[C@]12CC[C@@H](OC(=O)CCC(=O)O)C[C@H]1CC[C@@H]1[C@@H]2CC[C@]2(C)C=CC[C@@H]12	center range
C=C(C)[C@H]1CC[C@H]2[C@@H]3CC[C@@H]4C[C@H](OC(=O)CC(=O)O)CC[C@]4(C)[C@H]3CC[C@]12C	center range
C[C@]12CC[C@@H](OS(=O)(=O)O)C[C@H]1CC[C@@H]1[C@@H]2CC[C@@]2(C)[C@H]1CCC2(F)F	top range
C[C@@]12CCC[C@H]1[C@@H]1CC[C@@H]3C[C@H](OC(=O)CC(=O)O)CC[C@]3(C)[C@H]1CC2	center range
CC[C@@H](C)C1CC[C@H]2[C@@H]3CC[C@@H]4C[C@H](NC(=O)CC(=O)O)CC[C@]4(C)[C@H]3CC[C@]12C (some centres unmarked)	bottom range
C/C=C1/CC[C@H]2[C@@H]3CC[C@@H]4C[C@H](NC(=O)CC(=O)O)CC[C@]4(C)[C@H]3CC[C@]12C	top range
C[C@]12CC[C@@H](OC(=O)CC(=O)O)C[C@H]1CC[C@@H]1[C@@H]2CC[C@]2(C)C=CC[C@@H]12	center range
